Tested on: 377384-186-R-J1-PDC complex spheroid viability;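 note: spheroids exposed to agents for 7 days before reading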
Assay: Anticancer human tumor 377384-186-R-J1-PDC patient-derived pancreatic carcinoma cell line growth inhibition [CLK]
Details: curve of first compound; second compound 1 µM
Text: A high-throughput screen of multi-cell type tumor spheroids was designed to identify active combinations of […] and targeted small molecules. Complex spheroids include a stromal component modeled by human endothelial cells (HUVEC) and fibroblasts modeled by human mesenchymal stem cells (MSCs). […] Compounds. […] If the clinical Cmax for an agent had not been determined, the highest concentration tested was 10 microM. […]
property: IC50

Field IC50 (entry C=CC(=O)Nc1cc(Nc2nccc(-c3cn(C)c4ccccc34)n2)c(OC)cc1N(C)CCN(C)C + CN1CCN(c2cc(C(=O)Nc3cc4cc(-c5cnn(C)c5)ccc4cn3)ccn2)CC1 ) reads < 0.000949 µM

Entry CC(=O)O[C@H]1C(=O)[C@@]2(C)[C@H]([C@H](OC(=O)c3ccccc3)[C@]3(O)C[C@H](OC(=O)[C@H](O)[C@@H](NC(=O)c4ccccc4)c4ccccc4)C(C)=C1C3(C)C)[C@]1(OC(C)=O)CO[C@@H]1C[C@@H]2O + CNC(=O)c1ccc(Nc2nc(OC3CCCC3)c3c(-c4ccc5nc(C)oc5c4)c[nH]c3n2)c(OC)c1 ; IC50 = < 0.0316 µM

Briefly, IC50 measured for CC1COCCN1c1cc(C2(S(C)(=N)=O)CC2)nc(-c2ccnc3[nH]ccc23)n1 (stereo not given) + CNC(=O)c1ccc(Nc2nc(OC3CCCC3)c3c(-c4ccc5nc(C)oc5c4)c[nH]c3n2)c(OC)c1 : < 0.0316 µM

Reported IC50 ( Cn1ncnc1[C@H]1c2n[nH]c(=O)c3cc(F)cc(c23)N[C@@H]1c1ccc(F)cc1 + CNC(=O)c1ccc(Nc2nc(OC3CCCC3)c3c(-c4ccc5nc(C)oc5c4)c[nH]c3n2)c(OC)c1 ) = < 0.000316 µM

Attention now turns to another entry.
Form field IC50, entry CC(Nc1ccc2c(c1)OCCn1cc(N3C(=O)OCC3C(F)F)nc1-2)C(N)=O (stereo not given) + CN1CCN(c2cc(C(=O)Nc3cc4cc(-c5cnn(C)c5)ccc4cn3)ccn2)CC1 : < 0.0316 µM
